# IC50 values compiled below
# TARGET_SYSTEM: c-kit kinase (Homo sapiens)
# Construct: The c-kit (or kinase domain thereof) is an active kinase in AlphaScreen; poly-Histidine tag (in-house protein only) (cleaved yes); host or cells: E. coli BL21(DE3)RIL, co-expressed with PTP1B
# Sequence (P10721 26-976): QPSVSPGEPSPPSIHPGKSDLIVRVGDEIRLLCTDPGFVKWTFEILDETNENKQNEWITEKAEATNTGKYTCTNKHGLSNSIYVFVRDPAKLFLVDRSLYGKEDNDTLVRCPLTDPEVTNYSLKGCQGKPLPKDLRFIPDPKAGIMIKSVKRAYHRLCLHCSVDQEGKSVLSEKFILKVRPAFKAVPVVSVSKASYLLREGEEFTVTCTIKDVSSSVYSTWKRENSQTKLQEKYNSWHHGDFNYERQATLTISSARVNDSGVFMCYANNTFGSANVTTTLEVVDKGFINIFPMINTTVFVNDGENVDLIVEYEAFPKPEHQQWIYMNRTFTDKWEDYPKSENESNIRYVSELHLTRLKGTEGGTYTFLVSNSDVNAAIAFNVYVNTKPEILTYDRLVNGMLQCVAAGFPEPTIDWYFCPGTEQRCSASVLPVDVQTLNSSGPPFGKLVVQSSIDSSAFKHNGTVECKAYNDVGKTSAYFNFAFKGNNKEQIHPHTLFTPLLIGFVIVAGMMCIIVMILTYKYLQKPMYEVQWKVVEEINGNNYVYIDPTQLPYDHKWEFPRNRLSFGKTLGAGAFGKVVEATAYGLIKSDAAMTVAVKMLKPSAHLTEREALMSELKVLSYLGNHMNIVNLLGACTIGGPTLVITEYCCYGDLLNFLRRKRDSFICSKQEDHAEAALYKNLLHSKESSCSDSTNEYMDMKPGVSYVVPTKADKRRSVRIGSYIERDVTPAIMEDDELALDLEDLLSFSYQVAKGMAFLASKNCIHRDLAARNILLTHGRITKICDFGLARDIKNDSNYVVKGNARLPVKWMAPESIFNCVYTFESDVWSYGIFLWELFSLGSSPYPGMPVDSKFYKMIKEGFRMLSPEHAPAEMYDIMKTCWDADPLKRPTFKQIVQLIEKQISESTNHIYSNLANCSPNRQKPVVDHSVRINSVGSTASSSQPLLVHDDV
# ASSAY_EXPLANATION: c-Kit biochemical assay, AlphaScreen, 10 μM ATP
# CONDITION_SUMMARY: c-kit biochemical inhibitory activity; read-out: Biochemical activity (IC50 μM) Kit

| COMPOUND | IC50 |
| --- | --- |
| O=S(=O)(Nc1ccc(Cl)cc1)c1ccc(-c2ncnc3[nH]c(-c4ccc(F)cc4)cc23)c(F)c1 [P-0327] | 10 to 200 µM |
| CCOc1ccc(NC(=O)NC2CCN(c3ncnc4[nH]ccc34)CC2)cc1 [P-0534] | 10 to 200 µM |
| Cn1cc(-c2cc3c(N4CCC(NS(=O)(=O)c5ccc(C6(C#N)CC6)cc5)CC4)ncnc3[nH]2)cn1 [P-0486] | 1 to 10 µM |
| Cc1cc2c(-c3ccc(NS(=O)(=O)c4ccc(F)cc4)cc3)ncnc2[nH]1 [P-0331] | 1 to 10 µM |
| C[C@H](NC(=O)N1CCN(c2ncnc3[nH]c(-c4ccc(F)cc4)cc23)CC1)c1cccc(Cl)c1 [P-0027] | 10 to 200 µM |
| COc1cc(-c2cc3c(N4CCN(C(=O)N[C@@H](C)c5cccc(Cl)c5)C(C)(C)C4)ncnc3[nH]2)ccn1 [P-0650] | 1 to 10 µM |

GET /values?readout=IC50&item= COc1cccc([C@H](C)NC(=O)N2CCN(c3ncnc4[nH]c(-c5ccc(F)cc5)cc34)C[C@H]2C)c1 [P-0028]
0.0001 to 1 µM

Origin of the recorded values: patent US10227357B2
